# PROCEDURE_DETAILS: Metabolic stability in human liver microsomes
# Type: in vitro ADME
# APPLIED_CONDITIONS: calculated from liver microsome clearance
METRIC_NAME: Predicted Fmax (maximum oral bioavailability) (%)
API: value field is a number in %; no unit string.

{"COMPOUND": "CC(C)(O)c1ccc([C@H]2C[C@@]3(C)[C@@H](CC[C@@]3(O)C(F)(F)C(F)(F)F)[C@@H]3CCC4=CC(=O)CCC4=C32)cc1", "VALUE_REPORTED": 44}
{"COMPOUND": "C[C@]12C[C@H](c3ccc(C#N)cc3)C3=C4CCC(=O)C=C4CC[C@H]3[C@@H]1CC[C@@]2(O)C(F)(F)C(F)(F)F", "VALUE_REPORTED": 63}

Q: Which Predicted Fmax (maximum oral bioavailability) is reported for this compound? CC1(c2ccc([C@H]3C[C@@]4(C)[C@@H](CC[C@@]4(O)C(F)(F)C(F)(F)F)[C@@H]4CCC5=CC(=O)CCC5=C43)cc2)CC1
Ans: 37

Q: Which Predicted Fmax (maximum oral bioavailability) is reported for this compound? C[C@]12C[C@H](c3ccc(-c4ccc(-c5nnn[nH]5)cc4)cc3)C3=C4CCC(=O)C=C4CC[C@H]3[C@@H]1CC[C@@]2(O)C(F)(F)C(F)(F)F
Ans: 69

Q: Which Predicted Fmax (maximum oral bioavailability) is reported for this compound? CC1(C)OCC(C)(c2ccc([C@H]3C[C@@]4(C)[C@@H](CC[C@@]4(O)C(F)(F)C(F)(F)F)[C@@H]4CCC5=CC(=O)CCC5=C43)cc2)CO1 [Example 15B]
Ans: 5.0

Q: Which Predicted Fmax (maximum oral bioavailability) is reported for this compound? CC(CO)(CO)c1ccc([C@H]2C[C@@]3(C)[C@@H](CC[C@@]3(O)C(F)(F)C(F)(F)F)[C@@H]3CCC4=CC(=O)CCC4=C32)cc1 [Example 15A]
Ans: 8.5

---

# PROCEDURE_DETAILS: Metabolic stability in rat liver microsomes
# Assay type: in vitro ADME
# APPLIED_CONDITIONS: calculated from liver microsome clearance
Please assign a class to every record based on measured Predicted Fmax (maximum oral bioavailability), with ranges A = under 20%, B = from 20% up to 60%, C = 60% and over

Would you please look over these solved cases?
{"COMPOUND": "CC1(c2ccc([C@H]3C[C@@]4(C)[C@@H](CC[C@@]4(O)C(F)(F)C(F)(F)F)[C@@H]4CCC5=CC(=O)CCC5=C43)cc2)CC1", "ASSIGNED_CATEGORY": "B"}
{"COMPOUND": "CC1(C)OCC(C)(c2ccc([C@H]3C[C@@]4(C)[C@@H](CC[C@@]4(O)C(F)(F)C(F)(F)F)[C@@H]4CCC5=CC(=O)CCC5=C43)cc2)CO1 [Example 15B]", "ASSIGNED_CATEGORY": "A"}
{"COMPOUND": "Cc1nc(CCc2ccc([C@H]3C[C@@]4(C)[C@@H](CC[C@@]4(O)C(F)(F)C(F)(F)F)[C@@H]4CCC5=CC(=O)CCC5=C43)cc2)cs1", "ASSIGNED_CATEGORY": "A"}

Q: Class (by measured Predicted Fmax (maximum oral bioavailability)) for CCNC(=O)NCc1ccc([C@H]2C[C@@]3(C)C(CC[C@@]3(O)C(F)(F)C(F)(F)F)C3CCC4=CC(=O)CCC4=C32)cc1 (stereo partly drawn)
Ans: C

Q: Class (by measured Predicted Fmax (maximum oral bioavailability)) for C[C@]12C[C@H](c3ccc(CCc4ccncc4)cc3)C3=C4CCC(=O)C=C4CC[C@H]3[C@@H]1CC[C@@]2(O)C(F)(F)C(F)(F)F
Ans: A

Q: Class (by measured Predicted Fmax (maximum oral bioavailability)) for C[C@]12C[C@H](c3ccc(-c4ccc(-c5nnn[nH]5)cc4)cc3)C3=C4CCC(=O)C=C4CC[C@H]3[C@@H]1CC[C@@]2(O)C(F)(F)C(F)(F)F
Ans: C
